- Test system: 556581-035-R-J1-PDC spheroids with HUVEC/MSC, viability
- TEST_NAME: Anticancer human tumor 556581-035-R-J1-PDC patient-derived ovarian carcinoma cell line growth inhibition [IpAb]
- MEASUREMENT_SETUP: second compound 0.1 µM; first compound 0.03 µM; stronger effect = lower value
Give viability, T/C for every item shown.

Reference set (5 entries):
molecule="CC(C)(C)c1cnc(CSc2cnc(NC(=O)C3CCNCC3)s2)o1 + CCN1CCN(Cc2ccc(Nc3ncc(F)c(-c4cc(F)c5nc(C)n(C(C)C)c5c4)n3)nc2)CC1" value=93.9%
molecule="Cn1cnc2c(F)c(Nc3ccc(Br)cc3Cl)c(C(=O)NOCCO)cc21 + CCN1CCN(Cc2ccc(Nc3ncc(F)c(-c4cc(F)c5nc(C)n(C(C)C)c5c4)n3)nc2)CC1" value=95.1%
molecule="CC(=O)c1c(C)c2cnc(Nc3ccc(N4CCNCC4)cn3)nc2n(C2CCCC2)c1=O + CCN1CCN(Cc2ccc(Nc3ncc(F)c(-c4cc(F)c5nc(C)n(C(C)C)c5c4)n3)nc2)CC1" value=87.3%
molecule="CC(=O)c1c(C)c2cnc(Nc3ccc(N4CCNCC4)cn3)nc2n(C2CCCC2)c1=O + CC(C)NCC(C(=O)N1CCN(c2ncnc3c2C(C)CC3O)CC1)c1ccc(Cl)cc1" value=96%
molecule="CC(C)(C)c1cnc(CSc2cnc(NC(=O)C3CCNCC3)s2)o1 + CC(C)NCC(C(=O)N1CCN(c2ncnc3c2C(C)CC3O)CC1)c1ccc(Cl)cc1" value=116%

Now turn to the next molecule.
Measured viability, T/C of Cn1cnc2c(F)c(Nc3ccc(Br)cc3Cl)c(C(=O)NOCCO)cc21 + CC(C)NCC(C(=O)N1CCN(c2ncnc3c2C(C)CC3O)CC1)c1ccc(Cl)cc1 : 89.3%

---

- Test system: 556581-035-R-J1-PDC spheroids with HUVEC/MSC, viability
- TEST_NAME: Anticancer human tumor 556581-035-R-J1-PDC cell line growth inhibition [IpAb];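 further: spheroids exposed to compounds for 7 days before readout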
- MEASUREMENT_SETUP: second compound 0.0316 µM; first compound 0.1 µM; stronger effect = lower value
Give viability, T/C for every item shown.
Numbers only, in %.

Reference set (2 entries):
compound="Cn1ncnc1[C@H]1c2n[nH]c(=O)c3cc(F)cc(c23)N[C@@H]1c1ccc(F)cc1 + CCN1CCN(Cc2ccc(Nc3ncc(F)c(-c4cc(F)c5nc(C)n(C(C)C)c5c4)n3)nc2)CC1" u=% value=60
compound="Cn1nccc1Nc1nccc(-c2ccn(C(CO)c3ccc(Cl)c(F)c3)c(=O)c2)n1 (stereo not given) + CCN1CCN(Cc2ccc(Nc3ncc(F)c(-c4cc(F)c5nc(C)n(C(C)C)c5c4)n3)nc2)CC1" u=% value=140

Please give viability, T/C for each item listed below.
1. C=CC(=O)N1CCN(c2nc(=O)n(-c3c(C)ccnc3C(C)C)c3nc(-c4c(O)cccc4F)c(F)cc23)C(C)C1 (stereo not given) + CCN1CCN(Cc2ccc(Nc3ncc(F)c(-c4cc(F)c5nc(C)n(C(C)C)c5c4)n3)nc2)CC1
2. C=CCn1c(=O)c2cnc(Nc3ccc(N4CCN(C)CC4)cc3)nc2n1-c1cccc(C(C)(C)O)n1 + CCN1CCN(Cc2ccc(Nc3ncc(F)c(-c4cc(F)c5nc(C)n(C(C)C)c5c4)n3)nc2)CC1
3. Cn1ncc(Cl)c1-c1cc(C(=O)NC(CN)Cc2cccc(F)c2)sc1Cl (stereo not given) + CCN1CCN(Cc2ccc(Nc3ncc(F)c(-c4cc(F)c5nc(C)n(C(C)C)c5c4)n3)nc2)CC1
4. CC(C)n1nc(-c2ccc3oc(N)nc3c2)c2c(N)ncnc21 + CCN1CCN(Cc2ccc(Nc3ncc(F)c(-c4cc(F)c5nc(C)n(C(C)C)c5c4)n3)nc2)CC1
5. Cc1nc(NC(=O)N2CCCC2C(N)=O)sc1-c1ccnc(C(C)(C)C(F)(F)F)c1 (stereo not given) + CCN1CCN(Cc2ccc(Nc3ncc(F)c(-c4cc(F)c5nc(C)n(C(C)C)c5c4)n3)nc2)CC1
6. CCCS(=O)(=O)Nc1ccc(F)c(C(=O)c2c[nH]c3ncc(-c4ccc(Cl)cc4)cc23)c1F + CCN1CCN(Cc2ccc(Nc3ncc(F)c(-c4cc(F)c5nc(C)n(C(C)C)c5c4)n3)nc2)CC1
7. COc1c(OCCCN2CCOCC2)ccc2c3n(c(=NC(=O)c4cnc(N)nc4)nc12)CCN3 + CCN1CCN(Cc2ccc(Nc3ncc(F)c(-c4cc(F)c5nc(C)n(C(C)C)c5c4)n3)nc2)CC1
8. CC1(C)CCC(CN2CCN(c3ccc(C(=O)NS(=O)(=O)c4ccc(NCC5CCOCC5)c([N+](=O)[O-])c4)c(Oc4cnc5[nH]ccc5c4)c3)CC2)=C(c2ccc(Cl)cc2)C1 + CCN1CCN(Cc2ccc(Nc3ncc(F)c(-c4cc(F)c5nc(C)n(C(C)C)c5c4)n3)nc2)CC1

[107, 78.4, 78.5, 19.7, 58.8, 97.2, 32.4, 111]

Data credit: PubChem BioAssay AID2060338
